Data origin, for the record: PubChem BioAssay (NCATS)

Test system: CRL-7250
Experiment: Cytotoxic Profiling of Annotated Libraries Using Quantitative High-Throughput Screening (AID 1296008); also: nearly all actives have a fitted effect of over 60% in size
Conditions: Five cell lines viability, CellTiter-Glo ATP luminescence, 48-72 h
Inconclusive results are not listed. Active and inactive are the calls of the source. Calls follow the shape of the dose curve; as a rule, active = well fitted inhibition curve with a large enough effect; inconclusive = small, poorly fitted or top-dose-only effect; inactive = flat fitted curve, though single readings scatter.
Outcomes: active, inactive

[
  {
    "compound": "C[n+]1cc2c3c(ccc2c2ccc4cc5c(cc4c21)OCO5)OCO3",
    "label.class": "active"
  },
  {
    "compound": "CCc1c(C)[nH]c2c1C(=O)C(CN1CCOCC1)CC2 (stereo not given)",
    "label.class": "inactive"
  },
  {
    "compound": "CN(C)C(=O)Oc1cccc([N+](C)(C)C)c1",
    "label.class": "inactive"
  },
  {
    "compound": "CCN(CC)CCNC(=O)c1ccc(NC(C)=O)cc1",
    "label.class": "inactive"
  },
  {
    "compound": "CCO/C([O-])=N/c1c[n+](N2CCOCC2)no1",
    "label.class": "inactive"
  },
  {
    "compound": "Nc1ncn([C@@H]2O[C@H](CO)[C@@H](O)[C@H]2O)c(=O)n1",
    "label.class": "active"
  },
  {
    "compound": "CCN1CCC[C@H]1CNC(=O)c1c(O)c(Cl)cc(Cl)c1OC",
    "label.class": "inactive"
  },
  {
    "compound": "C(=C\\c1ccccc1)/CN1CCN(C(c2ccccc2)c2ccccc2)CC1",
    "label.class": "inactive"
  },
  {
    "compound": "COc1cc(Cc2cnc(N)nc2N)cc(OC)c1OC",
    "label.class": "inactive"
  },
  {
    "compound": "CN(C)C/C=C(/c1ccc(Br)cc1)c1cccnc1",
    "label.class": "inactive"
  },
  {
    "compound": "O=C1CC2(CCCC2)CC(=O)N1CCCCN1CCN(c2ncccn2)CC1",
    "label.class": "inactive"
  },
  {
    "compound": "OC(CCN1CCCCC1)(c1ccccc1)C1CCCCC1 (stereo not given)",
    "label.class": "inactive"
  },
  {
    "compound": "FC(F)(F)c1ccccc1-n1ccnc1",
    "label.class": "inactive"
  },
  {
    "compound": "CN1CCN(C2=Nc3ccccc3Oc3ccc(Cl)cc32)CC1",
    "label.class": "inactive"
  },
  {
    "compound": "CC(=O)Nc1nnc(S(N)(=O)=O)s1",
    "label.class": "inactive"
  }
]
